system: NCI-H23 lung; assay: NCI tumour cell line growth inhibition, 48 h
Experimental Readout: TGI

Example molecules with recorded TGI:
CCN(CC)c1ccc(/C=N/NC(=O)c2ccc(S(C)(=O)=O)cc2)c(O)c1 :: > 100 µM
COc1cccc(CC2C(=O)N=C(NC(C)=O)N2C)c1OC(C)=O (configuration not stated) :: > 100 µM
O=[As]O :: > 100 µM
COc1ccc(C(=O)O)c(Br)c1OCc1ccccc1 :: > 100 µM
Clc1nc(Cl)c2ncn(C/C=C\COc3cccc(OC/C=C\Cn4cnc5c(Cl)nc(Cl)nc54)c3)c2n1 :: > 100 µM

// TGI value for Cn1ccnc1Sc1ccc(/C=N\NC(=O)c2cccc(F)c2)cc1[N+](=O)[O-] : > 100 µM

// TGI value for CCSc1cc(C(=O)OC)c2n(c1=O)CCCC2 : > 100 µM

// TGI value for Nc1cccc(CCN2CCN(CCCc3ccccc3)CC2)c1 : > 100 µM

// TGI value for CC(OC(C)(C)C)[C@H](NC(=O)OCc1ccccc1)C(=O)NC(OCc1ccccc1)[C@H]1COC(C)(C)O1 (some centres not stated) : > 10 µM

// TGI value for C=C1CCC(OC(C)=O)C2(C)C(OC(C)=O)CC3OC3(C)C2C(OC(C)=O)C2C(C)C(=O)OC2C1Cl (configuration not stated) : > 100 µM

// TGI value for Cn1cc(-c2nonc2-c2cn(C)c3ccc(F)cc23)c2ccccc21 : > 100 µM

// TGI value for Nc1ccc(Cc2ccc(N=Cc3ccc(OCc4cccc(COc5ccc(C=Nc6ccc(Cc7ccc(N)cc7)cc6)cc5)n4)cc3)cc2)cc1 : > 100 µM

* * *

test system: RXF 393 renal; assay: NCI tumour cell line growth inhibition, 48 h
Experimental Readout: GI50

Example compounds with recorded GI50:
NC1CCCCC1N.O=C([O-])c1cc(S(=O)(=O)Nc2cc(S(=O)(=O)[O-])cc3cc(S(=O)(=O)[O-])cc(O)c23)ccc1[O-].[Pt+4] :: > 100000 nM
CSc1nc(N)cc(Oc2ccc(-c3nc(Nc4cccc(C(F)(F)F)c4)n[nH]3)cc2)n1 :: 504 nM
CN1N=C(N)c2cn(C3OC(COP(=O)(O)O)C(O)C3O)c3ncnc1c23 (centres undefined) :: 41900 nM

// GI50 value for Clc1ccc(CNc2ccc3nc(CCC4CCCCC4)[nH]c3c2)cc1 : 1970 nM

* * *

tested on: SK-MEL-2 melanoma; assay: NCI tumour cell line growth inhibition, 48 h
Recorded measurements of TGI, one per entry

Example compounds with recorded TGI:
CC(=O)N1C(Nc2ccccc2)CCN1c1ccccc1 (configuration not stated) :: > 10 µM
COc1ccc2[nH]c3c(C)c4ccnc(NCCCN(C)CCCNc5ccc([N+](=O)[O-])c6[nH]c7ccccc7c(=O)c56)c4c(C)c3c2c1 :: 1.46 µM
O=C(CSc1nnc(-c2ccccn2)s1)N/N=C/c1ccc([N+](=O)[O-])cc1 :: > 100 µM
CNC(=O)Oc1ccc(C(=S)Nc2ccc(Br)cc2)cc1 :: 46 µM
Nc1ccc(Cc2ccc(N=Cc3ccc(OCc4cccc(COc5ccc(C=Nc6ccc(Cc7ccc(N)cc7)cc6)cc5)n4)cc3)cc2)cc1 :: > 100 µM
CC(C)NC(=O)OCc1c(COC(=O)NC(C)C)c(-c2ccc[n+](COC(=O)C(C)C)c2)n2c1CCC2 :: > 100 µM

// TGI value for CCOC(=O)Cn1c(=O)[nH]c(=O)c2c1ncn2Cc1ccccc1 : > 100 µM

* * *

system: SN12C renal; assay: NCI tumour cell line growth inhibition, 48 h
Experimental Readout: TGI

Example compounds with recorded TGI:
CC(=O)OCC1OC(n2c3c(cc(C#N)c2=O)CCCCCC3)C(OC(C)=O)C(OC(C)=O)C1OC(C)=O (stereo unspecified) :: > 100 µM
CN=c1ss/c(=N\C(=S)N(C)C)n1-c1ccccc1 :: > 100 µM
COc1cc2c(cc1OC)C(C#N)(Cc1ccccc1)N(C(=O)c1ccccc1)C=C2 (stereo unspecified) :: > 100 µM
Cn1ccnc1Sc1ccc(/C=N\NC(=O)c2cccc(F)c2)cc1[N+](=O)[O-] :: > 100 µM
O=C(Nc1ccc2[nH]c3c(-c4ccccc4)nccc3c2c1)c1ccccc1[N+](=O)[O-] :: > 100 µM

Log: SN12C renal, compound O=C1C(N2CCOCC2)=C(Cl)C(=O)c2ncccc21 , TGI = 3.15 µM

Log: SN12C renal, compound Cc1cc(C)nc(NS(=O)(=O)c2ccc(NC(=O)c3cccc4c(Nc5ccc(S(=O)(=O)Nc6nc(C)cc(C)n6)cc5)c5ccc(Cl)cc5nc34)cc2)n1 , TGI = > 100 µM

Log: SN12C renal, compound COC(=O)/C(=N/NC(N)=O)C(C(=O)C(=O)Nc1ccc(C)cc1)c1nc2ccc(C(=O)c3ccccc3)cc2[nH]c1=O (stereo unspecified) , TGI = > 100 µM

Log: SN12C renal, compound O=C(NCc1ccccc1)c1cc2ccc(O)c(O)c2cn1 , TGI = 31.7 µM

Log: SN12C renal, compound CCCc1cn2c(/C=N/N=C(N)N)c(-c3c(OC)ccc(OC)c3[N+](=O)[O-])nc2s1 , TGI = 31.7 µM

Log: SN12C renal, compound CN(C)CCn1cnc2sc3ccccc3c21 , TGI = > 100 µM

Log: SN12C renal, compound O=C(Cc1nc(-c2ccccc2)cc(=O)n1-c1ccccc1Cl)c1ccncc1 , TGI = > 100 µM

Log: SN12C renal, compound O=C(CC1C(=O)Nc2ccccc2S1(=O)=O)Nc1cc(Cl)ccc1Cl (stereo unspecified) , TGI = 30.2 µM

Log: SN12C renal, compound Oc1c(I)cc(I)cc1CNCCN(Cc1ccccn1)Cc1ccccn1 , TGI = 2.37 µM

Log: SN12C renal, compound C[C@]12CCC3c4ccc(O)cc4CC[C@H]3C1CC(=O)NC2=O (stereo partly specified) , TGI = > 10 µM

Log: SN12C renal, compound O=C1C(Br)=CC2C1C1C3CCC3C2(Br)C12OCCO2 (stereo unspecified) , TGI = 15.3 µM

Log: SN12C renal, compound CCc1nnc(CC)n1N1C(=O)CCC1=O , TGI = > 100 µM

Log: SN12C renal, compound OC/C=C/[C@H](OCc1ccccc1)[C@H](/C=C/CO)OCc1ccccc1 , TGI = > 100 µM

Log: SN12C renal, compound CC(=O)c1c2c(cc3c1CC1(Cc4cc5c(cc4C1)CCCC5)C3)CCCC2 , TGI = > 100 µM

Log: SN12C renal, compound C=CCCCCCCCC(O)C1C[C@H](O)C(CCCCC)O1 (stereo partly specified) , TGI = 36 µM

Log: SN12C renal, compound CC(C)(C)c1ccc(S(=O)(=O)N2C(c3cccc(C4CC[C@@H](C(=O)O)N4S(=O)(=O)c4ccc(C(C)(C)C)cc4)c3)CC[C@H]2C(=O)O)cc1 (stereo partly specified) , TGI = > 100 µM

* * *

system: EKVX NSCLC; experiment: NCI tumour cell line growth inhibition, 48 h
Recorded measurements of TGI, one per entry

Example compounds with recorded TGI:
O=c1[nH]cnc2c1ccn2C1OC(CO)C(O)C1O (stereo not drawn) :: > 100 µM
CCOC(=O)c1c(SC(=O)C(C)(C)Oc2ccc(Cl)cc2)n(-c2ccccc2)c(=S)n(-c2ccccc2)c1=O :: > 100 µM

Log: EKVX NSCLC, compound C1OC1C1CO1 (stereo not drawn) , TGI = > 100 µM

* * *

tested on: SF-295 CNS; assay: NCI tumour cell line growth inhibition, 48 h
Recorded measurements of TGI, one per entry

Example compounds with recorded TGI:
COc1ccc(C(=O)O)c(Br)c1OCc1ccccc1 :: > 100 µM
COc1ccc2c(c1)OCCCN(C)OC2c1ccccc1 (stereo unspecified) :: > 100 µM
O=C(O)CCN1CCN(CCC(=O)O)CCN(CCC(=O)O)CC1 :: > 100 µM
C=C1c2nc3ccccc3n2C=C(c2ccc(OC)cc2)N1c1ccccc1 :: > 55.6 µM
CC(=O)c1c2c(cc3c1CC1(Cc4cc5c(cc4C1)CCCC5)C3)CCCC2 :: > 100 µM

API: the following record is the query input.
// TGI value for CN=c1ss/c(=N\C(=S)N(C)C)n1-c1ccccc1 : > 100 µM

* * *

test system: MCF7 breast; experiment: NCI tumour cell line growth inhibition, 48 h
Recorded measurements of TGI, one per entry

Cc1n[nH]c(=O)n1/N=C/c1ccc([N+](=O)[O-])cc1 :: > 100 µM
O=C1OC(c2ccccc2)=N/C1=C\c1ccc(Cl)cc1 :: > 100 µM
O=C(O)CCN1CCN(CCC(=O)O)CCN(CCC(=O)O)CC1 :: > 100 µM
N#Cc1c(N2CCCC2)ncn(-c2ccccc2)c1=S :: > 100 µM

API: the following record is the query input.
// TGI value for Cc1cc(C)c2c(c1)CC1(Cc3c(ccc(C)c3C)C1=O)C2=O (stereo not given) : > 100 µM

Origin of the recorded values: PubChem BioAssay (NCI)
